Provenance of the data: patent US20100112055A1

Assay: Pharmacokinetic study in vivo, plasma theophylline by HPLC
Details: male, rabbit, rabbits, intravenous injection, n = 5
endpoint name: AUC(0-inf) (µg·h/mL)
Please respond with the number in µg·h/mL and leave the unit unwritten.

Query Cn1c(=O)c2[nH]cnc2n(C)c1=O yields AUC(0-inf) of 117
